measuredTarget: Cannabinoid receptor 2 (Homo sapiens)
Sequence (P34972 whole entry): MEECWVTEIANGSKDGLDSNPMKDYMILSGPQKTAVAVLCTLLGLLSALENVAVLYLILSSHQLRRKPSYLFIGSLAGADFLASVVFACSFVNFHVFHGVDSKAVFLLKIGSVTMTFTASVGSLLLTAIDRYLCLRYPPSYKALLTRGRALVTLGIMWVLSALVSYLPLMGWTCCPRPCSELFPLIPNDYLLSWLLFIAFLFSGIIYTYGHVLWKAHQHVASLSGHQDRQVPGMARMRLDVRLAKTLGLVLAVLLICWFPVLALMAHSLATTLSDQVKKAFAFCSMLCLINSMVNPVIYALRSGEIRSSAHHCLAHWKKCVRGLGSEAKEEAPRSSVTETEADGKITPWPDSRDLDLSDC
testSummary: Agonist activity at human recombinant CB2 receptor expressed in Sf9 cells by GTP-europium binding assay relative to CP-55940
Entries and their measured Emax follow.
Form entry: value (%) — number only.

samplesmiles=CC(C)(C)c1cc(NCCCc2nc(-c3ccc(F)cc3Cl)no2)no1 measurementlabel=Emax value=110
samplesmiles=O=C(CCc1nc(-c2ccc(F)cc2Cl)no1)Nc1nc2ccc(OC(F)(F)F)cc2s1 measurementlabel=Emax value=120
samplesmiles=CCn1c2ccccc2c2cc(NC(=O)CCc3nc(-c4ccccc4F)co3)ccc21 measurementlabel=Emax value=46
samplesmiles=CC(C)(C)c1ncc(OCCCc2nc(-c3ccc(F)cc3Cl)no2)cn1 measurementlabel=Emax value=110
samplesmiles=CCn1c2ccccc2c2cc(NC(=O)CCc3nc(-c4cccc(Cl)c4)no3)ccc21 measurementlabel=Emax value=87

[in] Which Emax value belongs to `O=C(CCc1nc(-c2ccc(F)cc2Cl)no1)Nc1ccc(C(F)(F)F)cc1` ?
[out] 120

[in] Which Emax value belongs to `CCn1c2ccccc2c2cc(NC(=O)CCc3nc(-c4ccccc4)no3)ccc21` ?
[out] 100

The measurements presented in this section are drawn from ChEMBL document CHEMBL1156631.
